The entries that follow carry pKi values tested on Aurora kinase A (Homo sapiens, UniProt O14965), drawn from several published reports.
pKi: −log10 of the molar value.

CCC(=O)Nc1ccc(Sc2nc(Nc3cc(C)n[nH]3)cc(N3CC[C@H](NC)C3)n2)cc1 :: ≥ 8.00
COc1cncc(-c2cnc3[nH]cc(-c4oncc4-c4cccc(F)c4F)c3c2)c1 :: > 6.70
CCOc1ccc(C2=NNC(=O)C2=NNc2ccc(N(CC)CCO)cc2)cc1OCC :: > 7.00

Q. Record lookup: for Aurora kinase A (Homo sapiens, UniProt O14965), what pKi belongs to Cc1cc(Nc2nc(Nc3ccc(NC(=O)OC(C)(C)C)cc3)nc3ccccc23)n[nH]1 ?
A. > 7.00

Q. Given the entry CC1(C)[C@H]2C[C@H](C(N)=O)[C@H](Nc3nc(Nc4cnn(CCc5ccccc5)c4)ncc3Cl)[C@@H]1C2 , what pKi was observed with Aurora kinase A (Homo sapiens, UniProt O14965)?
A. > 7.00

Q. Checklist item: pKi tested on Aurora kinase A (Homo sapiens, UniProt O14965), entry CCn1cc(Nc2ncc(Br)c(N[C@H]3[C@@H](C(N)=O)C[C@H]4C[C@@H]3C4(C)C)n2)cn1 , value?
A. > 7.00

Q. // fetch Aurora kinase A (Homo sapiens, UniProt O14965) pKi for Cn1cc(Nc2ncc(C(F)(F)F)c(Nc3sccc3C(N)=O)n2)cn1
A. > 7.00
